The measurements presented in this section are drawn from ChEMBL document CHEMBL1132006.

- System: Staphylococcus aureus
- protocol_description: In vitro antibacterial activity against Staphylococcus aureus 011GO76 OfloOxaEry-R strain
- Type: functional
observation_type: MIC (mg/L)

Some compounds with known MIC results, for comparison:
| compound_smiles | unit_abbrev | recorded_result |
| --- | --- | --- |
| CO[C@@H]1[C@@H](OC(=O)c2ccc(C)[nH]2)[C@@H](O)[C@H](Oc2cc(Cc3ccccc3)c3cc(C(=O)O)c(=O)oc3c2C)O[C@H]1C | mg/L | 5 |
| CCCc1cc(O[C@@H]2O[C@@H](C)[C@H](OC)[C@@H](OC(=O)c3ccc(C)[nH]3)[C@H]2O)c(C)c2oc(=O)c(C(=O)O)cc12 | mg/L | 40 |
| CCCCCCCCCCCCc1cc(O[C@@H]2O[C@@H](C)[C@H](OC)[C@@H](OC(=O)c3ccc(C)[nH]3)[C@H]2O)c(C)c2oc(=O)c(C(=O)O)cc12 | mg/L | 5 |

P = CCCCCCCc1cc(O[C@@H]2O[C@@H](C)[C@H](OC)[C@@H](OC(=O)c3ccc(C)[nH]3)[C@H]2O)c(C)c2oc(=O)c(C(=O)O)cc12
Q = CCCCCc1cc(O[C@@H]2O[C@@H](C)[C@H](OC)[C@@H](OC(=O)c3ccc(C)[nH]3)[C@H]2O)c(C)c2oc(=O)c(C(=O)O)cc12
Task: Form field 'greater MIC' accepts P or Q ; which applies? Answer = label.
Output: Q

1 = CO[C@@H]1[C@@H](OC(=O)c2ccc(C)[nH]2)[C@@H](O)[C@H](Oc2ccc3c(CC(=O)O)cc(=O)oc3c2C)OC1(C)C
2 = CO[C@@H]1[C@@H](OC(=O)c2ccc(C)[nH]2)[C@@H](O)[C@H](Oc2ccc3c(CC(=O)O)cc(=O)oc3c2C)O[C@H]1C
Task: Could you determine which record has the numerically smaller MIC? Candidates: 1 and 2 Answer = label.
Output: 1
(1: 5 mg/L, 2: 40 mg/L)
